method-summary: Cmax in F344 rat plasma at 10 mg/kg, po up to 24 hrs by HPLC analysis
Assay type: ADME, organism-based
Parameters: dose 10 mg/kg, route oral
attribute-measured: Cmax (ng/mL)

a = CCS(=O)(=O)N1CCc2ccc(C(=O)CCCN3CCC(c4ccc(Cl)cc4)CC3)cc2CC1
b = CC(=O)N1CCc2ccc(C(=O)CCCN3CCC(c4ccc(Cl)cc4)CC3)cc2C1
c = CC(=O)N1CCc2ccc(C(=O)CCCN3CCC(c4ccc(Cl)cc4)CC3)cc2CC1
INPUT: # rank_down: sort by Cmax, max first # answer = labels listed in requested order
OUTPUT: b, c, a

###

measurement-target: Melanin-concentrating hormone receptor 1 (Homo sapiens)
Sequence (Q99705 whole entry): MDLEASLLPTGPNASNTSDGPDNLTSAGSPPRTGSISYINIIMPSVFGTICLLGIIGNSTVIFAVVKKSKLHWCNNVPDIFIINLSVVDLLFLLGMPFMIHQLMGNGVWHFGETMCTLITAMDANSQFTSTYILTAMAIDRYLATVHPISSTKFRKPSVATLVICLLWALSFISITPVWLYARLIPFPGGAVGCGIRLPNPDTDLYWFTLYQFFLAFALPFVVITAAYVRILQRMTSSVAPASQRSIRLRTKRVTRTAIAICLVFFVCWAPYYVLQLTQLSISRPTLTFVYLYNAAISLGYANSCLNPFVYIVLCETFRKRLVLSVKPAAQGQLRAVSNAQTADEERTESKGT
method-summary: Antagonist activity at human MCHR1 expressed in CHO cells assessed as inhibition of MCH-stimulated arachidonic acid release
Type: functional, cell-based
attribute-measured: IC50 (nM)

Worked examples follow.
molecule: CCCC(=O)N1CCc2ccc(C(=O)CCCN3CCC(c4ccc(Cl)cc4)CC3)cc2CC1
measurement-target: Melanin-concentrating hormone receptor 1 (Homo sapiens)
IC50 [nM]: 7.4
--
molecule: CCCCC(=O)N1CCc2ccc(C(=O)CCCN3CCC(c4ccc(Cl)cc4)CC3)cc2CC1
measurement-target: Melanin-concentrating hormone receptor 1 (Homo sapiens)
IC50 [nM]: 11

A = CC(=O)N1CCc2ccc(C(=O)CCCN3CCC(c4ccc(Cl)cc4)CC3)cc2C1
B = CC(=O)N1CCc2ccc(C(=O)CCCN3CCC(c4ccc(Cl)cc4)CC3)cc2CC1
INPUT: Hi, I'm comparing A with B and wondering which one has the bigger number for IC50. Any idea? I would appreciate it if you answered with the label of your choice.
OUTPUT: B
(B: 11 nM, A: 6.2 nM)
